- Tested System: α5β1 (Homo sapiens, UniProt P05556+P08648)
- Construct: purchased Immunological Sciences (Rome, Italy)
- Experiment Description: Competitive integrin binding assay (isoDGR/STV-HRP) on α5β1-coated plates
- Test Context: number in parenthesis
Where a SMILES comes first, the peptide text is derived from it. Bridges are numbered along the chain shown (N, C = ends). The star is where a group is joined. X1 = NC(=O)C1CCC(CN2C(=O)CC(*)C2=O)CC1; X2 = O=C(O)C1CCC(CN2C(=O)CC(*)C2=O)CC1
Reported Endpoint: ratio of integrin Ki/αvβ3 Ki (α5β1)

The examples below pair each entry with its known result.
# Compound, Tested System, ratio of integrin Ki/αvβ3 Ki (α5β1)
data = [
    ("N=C(N)NCCC[C@@H]1NC(=O)CNC(=O)C[C@@H](C(=O)O)NC(=O)CNC(=O)[C@H](CS)NC(=O)CNC1=O [isoDGR#1, c(CGisoDGRG)] (GRGCGD-OH; lactam N-6)", "α5β1 (Homo sapiens, UniProt P05556+P08648)", "(3)"),
    ("N=C(N)NCCC[C@@H]1NC(=O)CNC(=O)C[C@@H](C(=O)O)NC(=O)CNC(=O)[C@H](CSC2CC(=O)N(CC3CCC(C(=O)O)CC3)C2=O)NC(=O)CNC1=O (stereo partly shown) [isoDGR#1-P2] (GRGC(X2)GD-OH; lactam N-6)", "α5β1 (Homo sapiens, UniProt P05556+P08648)", "(9.6)"),
    ("N=C(N)NCCC[C@@H]1NC(=O)CNC(=O)C[C@@H](C(=O)O)NC(=O)[C@H](CS)NC(=O)CNC(=O)CNC1=O [isoDGR#3, c(CisoDGRGG)] (GRGGCD-OH; lactam N-6)", "α5β1 (Homo sapiens, UniProt P05556+P08648)", "(0.5)"),
    ("N=C(N)NCCC[C@@H]1NC(=O)CNC(=O)C[C@@H](C(=O)O)NC(=O)[C@H](CS)NC(=O)CNC1=O [isoDGR#2, c(CisoDGRG)] (GRGCD-OH; lactam N-5)", "α5β1 (Homo sapiens, UniProt P05556+P08648)", "(0.5)"),
]

--- query ---
Item under review: N=C(N)NCCC[C@@H]1NC(=O)CNC(=O)C[C@@H](C(=O)O)NC(=O)CNC(=O)[C@H](CSC2CC(=O)N(CC3CCC(C(N)=O)CC3)C2=O)NC(=O)CNC1=O (stereo partly shown) [isoDGR#1-P1] (GRGC(X1)GD-OH; lactam N-6) . Reported ratio of integrin Ki/αvβ3 Ki (α5β1)?
(8.6)
